Assay: Selectivity index, ratio of CC50 for African green monkey Vero cells to IC50 for Cowpox virus Grishak infected in African green monkey Vero cells assessed as reduction in cell survival incubated for 4 days by neutral dye based colorimetric analysis
Format: toxicity
Conditions: read-out: Ratio CC50/IC50

- molecule: "CC1(C)[C@H]2CC=C(C(=O)NC3C4CC5CC(C4)CC3C5)[C@@H]1C2 (stereo not given in full)"
  selectivity ratio at 96 h: 113
- molecule: "CC1(C)[C@H]2CC=C(CNC(=O)C34CC5CC(CC(C5)C3)C4)[C@@H]1C2"
  selectivity ratio at 96 h: 406
- molecule: "CC1(C)[C@H]2CC=C(CNC(=O)C3C4CC5CC(C4)CC3C5)[C@@H]1C2 (stereo not given in full)"
  selectivity ratio at 96 h: 82
- molecule: "CC1(C)[C@H]2CC=C(CCNC(=O)C3C4CC5CC(C4)CC3C5)[C@@H]1C2 (stereo not given in full)"
  selectivity ratio at 96 h: 30
- molecule: "CC1(C)[C@H]2CC=C(CCNC(=O)C34CC5CC(CC(C5)C3)C4)[C@@H]1C2"
  selectivity ratio at 96 h: 183

###

Test: Cytotoxicity against African green monkey Vero cells assessed as […]
Type: cell-based
Conditions: chlorocebus sabaeus
Criterion: CC50 strictly under 300 µM. Met: true. Not met: false.

- molecule: "CC1=CC[C@H](CCNC(=O)C23CC4CC(CC(C4)C2)C3)C1(C)C"
  group: "false"
- molecule: "CC(C)=CCCC(C)CC(=O)NC12CC3CC(CC(C3)C1)C2 (stereo not given)"
  group: "true"
- molecule: "CC1(C)[C@H]2CC=C(CCNC(=O)C3C4CC5CC(C4)CC3C5)[C@@H]1C2 (stereo not given in full)"
  group: "false"
- molecule: "CC1(C)[C@H]2CC=C(CNC(=O)C3C4CC5CC(C4)CC3C5)[C@@H]1C2 (stereo not given in full)"
  group: "false"
- molecule: "CC(C)=CCCC(C)CC(=O)NC1C2CC3CC(C2)CC1C3 (stereo not given)"
  group: "false"
- molecule: "CC1=CC[C@H](CCNC(=O)C2C3CC4CC(C3)CC2C4)C1(C)C (stereo not given in full)"
  group: "false"
- molecule: "O=C(NN1C(=O)C2C3C=CC(C4CC34)C2C1=O)c1ccc(C(F)(F)F)cc1 (stereo not given)"
  group: "false"
- molecule: "CC(C)=CCC/C(C)=C/CNC(=O)C12CC3CC(CC(C3)C1)C2"
  group: "true"
- molecule: "CC(C)CCCC(C)CCNC(=O)C1C2CC3CC(C2)CC1C3 (stereo not given)"
  group: "true"
- molecule: "CC1(C)[C@H]2CC=C(C(=O)NC3C4CC5CC(C4)CC3C5)[C@@H]1C2 (stereo not given in full)"
  group: "false"

###

Assay: Selectivity index, ratio of CC50 for African green monkey Vero cells to IC50 for Vaccinia virus Copenhagen infected in African green monkey Vero cells assessed as reduction in cell survival incubated for 4 days by neutral dye based colorimetric analysis
Type: toxicity
Conditions: read-out: Ratio CC50/IC50

- compound: "CC(C)=CCCC(C)CC(=O)NC12CC3CC(CC(C3)C1)C2 (stereo not given)"
  selectivity ratio at 96 h: 12
- compound: "O=C(NN1C(=O)C2C3C=CC(C4CC34)C2C1=O)c1ccc(C(F)(F)F)cc1 (stereo not given)"
  selectivity ratio at 96 h: 128000
- compound: "CC1(C)[C@H]2CC=C(C(=O)NC3C4CC5CC(C4)CC3C5)[C@@H]1C2 (stereo not given in full)"
  selectivity ratio at 96 h: 325
- compound: "CC(C)=CCC/C(C)=C/CNC(=O)C12CC3CC(CC(C3)C1)C2"
  selectivity ratio at 96 h: 3
- compound: "CC1(C)[C@H]2CC=C(CNC(=O)C34CC5CC(CC(C5)C3)C4)[C@@H]1C2"
  selectivity ratio at 96 h: 1120
- compound: "CC1(C)[C@H]2CC=C(C(=O)NC34CC5CC(CC(C5)C3)C4)[C@@H]1C2"
  selectivity ratio at 96 h: 11
- compound: "CC1(C)[C@H]2CC=C(CNC(=O)C3C4CC5CC(C4)CC3C5)[C@@H]1C2 (stereo not given in full)"
  selectivity ratio at 96 h: 267
- compound: "CC1(C)[C@H]2CC[C@](C)(C2)[C@H]1NC(=O)C12CC3CC(CC(C3)C1)C2"
  selectivity ratio at 96 h: 22
- compound: "C=C(C)[C@@H]1CC=C(CNC(=O)C23CC4CC(CC(C4)C2)C3)CC1"
  selectivity ratio at 96 h: 26
- compound: "Nc1ccn(C[C@@H](CO)OCP(=O)(O)O)c(=O)n1"
  selectivity ratio at 96 h: 12
- compound: "CC1(C)[C@H]2CC=C(CCNC(=O)C3C4CC5CC(C4)CC3C5)[C@@H]1C2 (stereo not given in full)"
  selectivity ratio at 96 h: 85
- compound: "CC1(C)[C@@H]2CC[C@@]1(CS(=O)(=O)NC1C3CC4CC(C3)CC1C4)C(=O)C2 (stereo not given in full)"
  selectivity ratio at 96 h: 160
- compound: "CC(C)CCCC(C)CCNC(=O)C1C2CC3CC(C2)CC1C3 (stereo not given)"
  selectivity ratio at 96 h: 5
- compound: "CC1=CC[C@H](CCNC(=O)C2C3CC4CC(C3)CC2C4)C1(C)C (stereo not given in full)"
  selectivity ratio at 96 h: 122
- compound: "CC1(C)[C@@H]2CC[C@@]1(CS(=O)(=O)NC13CC4CC(CC(C4)C1)C3)C(=O)C2"
  selectivity ratio at 96 h: 71
- compound: "CC1(C)[C@@H]2CC[C@@]1(C)[C@H](NC(=O)C13CC4CC(CC(C4)C1)C3)C2"
  selectivity ratio at 96 h: 30
- compound: "CC1(C)[C@H]2CC=C(CCNC(=O)C34CC5CC(CC(C5)C3)C4)[C@@H]1C2"
  selectivity ratio at 96 h: 417
- compound: "CC(C)=CCCC(C)CC(=O)NC1C2CC3CC(C2)CC1C3 (stereo not given)"
  selectivity ratio at 96 h: 22
- compound: "CC1=CC[C@H](CCNC(=O)C23CC4CC(CC(C4)C2)C3)C1(C)C"
  selectivity ratio at 96 h: 126
- compound: "CC(C)=CCC[C@H](C)CCNC(=O)C12CC3CC(CC(C3)C1)C2"
  selectivity ratio at 96 h: 5

###

Assay: Selectivity index, ratio of CC50 for African green monkey Vero cells to IC50 for Ectromelia virus K-1 infected in African green monkey Vero cells assessed as reduction in cell survival incubated for 4 days by neutral dye based colorimetric analysis
Assay type: toxicity
Details: read-out: Ratio CC50/IC50
Criterion: selectivity ratio at 96 h strictly under 100. Met: Satisfied. Not met: Not satisfied.

- molecule: "CC1(C)[C@H]2CC=C(CNC(=O)C34CC5CC(CC(C5)C3)C4)[C@@H]1C2"
  group: "Not satisfied"
- molecule: "CC1(C)[C@H]2CC=C(CCNC(=O)C34CC5CC(CC(C5)C3)C4)[C@@H]1C2"
  group: "Not satisfied"
- molecule: "CC1(C)[C@H]2CC=C(CCNC(=O)C3C4CC5CC(C4)CC3C5)[C@@H]1C2 (stereo not given in full)"
  group: "Satisfied"
- molecule: "CC1(C)[C@H]2CC=C(C(=O)NC3C4CC5CC(C4)CC3C5)[C@@H]1C2 (stereo not given in full)"
  group: "Not satisfied"
